test: Plasma pharmacokinetics in rats, single intravenous or oral administration
Format: in vivo
experimentalContext: male, Wistar, rat, po, 5 mg/kg, read-out: Median plasma concentration
assayReadout: concentration at 1 h (ng/mL)
Write down the numeric answer in ng/mL and omit the unit.

> print(dat)
                          compoundstructure          assayreadout  result
1  C#Cc1cc(Nc2nccc(Oc3ccc(NC(=O)Nc4cc(C(C)(C)C)cc(NS(C)(=O)=O)c4OC)c4ccccc34)n2)cc(C(=O)NCCOCCOCCOC)c1  concentration at 1 h       0

// below: concentration at 1 h requested for another compound
Request: Item under review: COCCOCCOCCNC(=O)c1cc(Nc2cc(Oc3ccc(NC(=O)Nc4cc(C(C)(C)C)cc(NS(C)(=O)=O)c4OC)c4ccccc34)ccn2)cc(OC)c1 . Reported concentration at 1 h?
Result: 0

* * *

Items are presented alongside their recorded concentration at 4 h.
test: Plasma pharmacokinetics in rats, single intravenous or oral administration
Format: in vivo
experimentalContext: male, Wistar, rat, po, 5 mg/kg, read-out: Median plasma concentration

> print(dat)
                                   compound          assayreadout   result
1  COCCOCCOCCNC(=O)c1cc(Nc2cc(Oc3ccc(NC(=O)Nc4cc(C(C)(C)C)cc(NS(C)(=O)=O)c4OC)c4ccccc34)ccn2)cc(OC)c1 [Example 3]  concentration at 4 h  0 ng/mL

// below: concentration at 4 h requested for another compound
Request: Item under review: C#Cc1cc(Nc2nccc(Oc3ccc(NC(=O)Nc4cc(C(C)(C)C)cc(NS(C)(=O)=O)c4OC)c4ccccc34)n2)cc(C(=O)NCCOCCOCCOC)c1 [Example 16] . Reported concentration at 4 h?
Result: 0 ng/mL

* * *

test: Plasma pharmacokinetics in rats, single intravenous or oral administration
Type: in vivo
experimentalContext: male, Wistar, rat, rats, intravenous 0.25 mg/kg
Items are presented alongside their recorded clearance.
Write down the numeric answer in mL/min/kg and omit the unit.

> print(dat)
                                   compound  unitannotation  result
1  COc1c(NC(=O)Nc2ccc(Oc3ccnc(Nc4ccccc4)c3)c3ccccc23)cc(C(C)(C)C)cc1C(=O)NC1COC1 [Example 75]       mL/min/kg     4.4
2  C#Cc1cc(Nc2nccc(Oc3ccc(NC(=O)Nc4cc(C(C)(C)C)cc(NS(C)(=O)=O)c4OC)c4ccccc34)n2)cc(C(=O)NCCOCCOCCOC)c1 [Example 16]       mL/min/kg     4.8

// below: clearance requested for another compound
Request: Item under review: COCCOCCOCCNC(=O)c1cc(Nc2cc(Oc3ccc(NC(=O)Nc4cc(C(C)(C)C)cc(NS(C)(=O)=O)c4OC)c4ccccc34)ccn2)cc(OC)c1 [Example 3] . Reported clearance?
Result: 5.1

* * *

test: Plasma pharmacokinetics in rats, single intravenous or oral administration
Format: in vivo
experimentalContext: male, Wistar, rat, po, 5 mg/kg, read-out: Median plasma concentration
assayReadout: concentration at 0.5 h
Write the numeric value and follow it with the unit.

Request: Item under review: COCCOCCOCCNC(=O)c1cc(Nc2cc(Oc3ccc(NC(=O)Nc4cc(C(C)(C)C)cc(NS(C)(=O)=O)c4OC)c4ccccc34)ccn2)cc(OC)c1 [Example 3] . Reported concentration at 0.5 h?
Result: 0 ng/mL

Request: Do the same for C#Cc1cc(Nc2nccc(Oc3ccc(NC(=O)Nc4cc(C(C)(C)C)cc(NS(C)(=O)=O)c4OC)c4ccccc34)n2)cc(C(=O)NCCOCCOCCOC)c1 [Example 16] please
Result: 0 ng/mL

Data credit: patent US10435361B2
